ASSAY_DETAILS: Components of the Cytosolic LPS Sensing Pathway: Gene Identification via Genome-wide siRNA Screen
CONDITION_DESCRIPTION: RAW264.7 macrophages, IL-1a HTRF, actives lie on both sides, screened at 100 nM (by protocol), cells primed 5 h with Pam3CSK4 first
Among all 53,000 sequences or so, about 3,700 (7%) were called active.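 The calls were made as follows: active = gene knockdowns whose robust z-score for IL-1 alpha signal is at least 2 or at most -2, so actives lie on both sides; inactive = the rest.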 The sample as a whole holds a higher share of actives than the screen did.
Possible outcomes: active, inactive

- CHAIN_SEQUENCE: "CCAAAGAUGCUCCUCACCUTT against Olfr197"
  CLASS_LABEL: "inactive"
- CHAIN_SEQUENCE: "CCAACAAUUCUGCCAAGACTT against Arrb2"
  CLASS_LABEL: "active"
- CHAIN_SEQUENCE: "GAAAUGAGUCCUUGAAAAGTT against Olfr127"
  CLASS_LABEL: "inactive"
- CHAIN_SEQUENCE: "CGGAUCGGUGCGAGAAUAATT against Gpatch3"
  CLASS_LABEL: "inactive"
- CHAIN_SEQUENCE: "GGCAGUCUCAGGUUAUCUCTT against Zfp445"
  CLASS_LABEL: "inactive"
- CHAIN_SEQUENCE: "GGACUGGUCAGAGAUGGAUTT against Pced1a"
  CLASS_LABEL: "active"
- CHAIN_SEQUENCE: "GGAGAACAUAAUGAAAUCUTT against Fam50a"
  CLASS_LABEL: "inactive"
- CHAIN_SEQUENCE: "GGACAGUAUGAAUUUGAAUTT against Lcp1"
  CLASS_LABEL: "active"
- CHAIN_SEQUENCE: "GCAGUACGAAAUGGUAUACTT against Chd6"
  CLASS_LABEL: "inactive"
- CHAIN_SEQUENCE: "GGCGAAAUCUGCUAGAGUATT against Tppp3"
  CLASS_LABEL: "active"
- CHAIN_SEQUENCE: "GGAGCUUACAUGGUCCCUATT against Prss37"
  CLASS_LABEL: "inactive"
- CHAIN_SEQUENCE: "GGAACCCAUCUCUCAAGCATT against Atp5g1"
  CLASS_LABEL: "inactive"
- CHAIN_SEQUENCE: "GCCAUAAAACAGAAUCUCATT against Tmco5b"
  CLASS_LABEL: "inactive"
- CHAIN_SEQUENCE: "GCCCUGGCAUGCUAACAAATT against Prpf3"
  CLASS_LABEL: "inactive"
- CHAIN_SEQUENCE: "CGGUAAUCAUUGCUGUUCUTT against H2-K1"
  CLASS_LABEL: "inactive"
- CHAIN_SEQUENCE: "GGCACAGCUUGCUGAAGCUTT against Atp11b"
  CLASS_LABEL: "inactive"
- CHAIN_SEQUENCE: "GGAUGAUAUCUCAGUCAUGTT against Sult2a8"
  CLASS_LABEL: "inactive"
- CHAIN_SEQUENCE: "GGAUGUUUGGACCAAUCACTT against Iba57"
  CLASS_LABEL: "inactive"
- CHAIN_SEQUENCE: "GGACAAUGUUGAAUCCUGUTT against Rrp15"
  CLASS_LABEL: "inactive"
- CHAIN_SEQUENCE: "GGUCACAGACAUUCCCGAATT against Atad2"
  CLASS_LABEL: "active"
- CHAIN_SEQUENCE: "GGAAAAUUCCAGAAACCAUTT against Mettl8"
  CLASS_LABEL: "inactive"
- CHAIN_SEQUENCE: "GGGAAGUUCAGUUCAAUACTT against Hps4"
  CLASS_LABEL: "inactive"
- CHAIN_SEQUENCE: "CCCAAACAGACUAGAUCCGTT against Rab20"
  CLASS_LABEL: "active"
- CHAIN_SEQUENCE: "CUUUUACACCAUCAUGACGTT against Mrgpra5"
  CLASS_LABEL: "active"
- CHAIN_SEQUENCE: "GGCCAGUGGAGGAAUAUGATT against 1300017J02Rik"
  CLASS_LABEL: "inactive"
- CHAIN_SEQUENCE: "CCGAAAAUGGUAAAUAACUTT against Rnf17"
  CLASS_LABEL: "inactive"
- CHAIN_SEQUENCE: "GCACAAGACUAACAAUACGTT against Sptbn2"
  CLASS_LABEL: "inactive"
- CHAIN_SEQUENCE: "GGUGAUCAAUCCUCUAAUATT against Eid2"
  CLASS_LABEL: "active"
- CHAIN_SEQUENCE: "GCUCCAGCUCUGCUUUAAGTT against 4931440P22Rik"
  CLASS_LABEL: "inactive"
- CHAIN_SEQUENCE: "GGUGAGUGAUCUUCAGAACTT against Snx13"
  CLASS_LABEL: "inactive"
- CHAIN_SEQUENCE: "GCCAUUGCUUUAUAAGGUUTT against Olfr901"
  CLASS_LABEL: "inactive"
- CHAIN_SEQUENCE: "CUUACGAUACAUAAGAGAATT against Zfp457"
  CLASS_LABEL: "inactive"
- CHAIN_SEQUENCE: "CCCAGUACAGCCUUGUGGUTT against Med25"
  CLASS_LABEL: "active"
- CHAIN_SEQUENCE: "GGAAUUCCCAAGAGAAGGATT against Gk"
  CLASS_LABEL: "active"
- CHAIN_SEQUENCE: "GGUACUUUCCUUUCGAUGCTT against Skint10"
  CLASS_LABEL: "inactive"
- CHAIN_SEQUENCE: "GGGUCACACUUCAUGGCUUTT against Pofut1"
  CLASS_LABEL: "active"
- CHAIN_SEQUENCE: "GGAUAUGUUUGGUUAUUUCTT against Acbd4"
  CLASS_LABEL: "inactive"
- CHAIN_SEQUENCE: "GGAACCUCUCAAUUUUGCGTT against Pik3ip1"
  CLASS_LABEL: "inactive"
- CHAIN_SEQUENCE: "GGAUUCUCACCAAAUACUUTT against Oprd1"
  CLASS_LABEL: "inactive"
- CHAIN_SEQUENCE: "GCAGGUUUGAUAUAAAAUCTT against Uba2"
  CLASS_LABEL: "inactive"
- CHAIN_SEQUENCE: "GGUCCAGCAUUUGAAAUUATT against Moap1"
  CLASS_LABEL: "inactive"
- CHAIN_SEQUENCE: "GGACAGAGAACAAAUGACCTT against 4931417E11Rik"
  CLASS_LABEL: "inactive"
- CHAIN_SEQUENCE: "CCUACGACUUCUACUACAUTT against Chst8"
  CLASS_LABEL: "inactive"
- CHAIN_SEQUENCE: "GGGUAUGGCAUAAAUGUCCTT against Zpbp"
  CLASS_LABEL: "active"
- CHAIN_SEQUENCE: "GGACUUUGUGAUCUUUCCATT against Pias2"
  CLASS_LABEL: "inactive"
- CHAIN_SEQUENCE: "CGCACAAGUGCUUGAGUUATT against Ccdc151"
  CLASS_LABEL: "inactive"
- CHAIN_SEQUENCE: "GGCCAUUCUUUGUCACCCATT against Os9"
  CLASS_LABEL: "active"
- CHAIN_SEQUENCE: "GAAAAGAGUUUCCACGAGATT against Il19"
  CLASS_LABEL: "inactive"
- CHAIN_SEQUENCE: "GGAAAACUCAAAGUGCUGATT against Paqr7"
  CLASS_LABEL: "inactive"
- CHAIN_SEQUENCE: "GGUCAAAAGUUCUGGACAGTT against Spin4"
  CLASS_LABEL: "active"
